assay: yeast display, Sf9 membrane polyspecificity reagent, FACS + sequencing; frameworks hold sequencing errors
Result Type: polyreactivity (PSR sort gate)

Observe how each entry below is paired with its result.
* QVQLVESGGGLVQAGGSLRLSCAASGSILFVYAMGWYRQAPGKERELVAGINSSGTSTYADSVKGRFTISRDNAKNTVYLQMNSLKPEDTAVYYCAARWFYYRWAYDYWGQGTQVTVSS | low polyreactivity
* QVQLVESGGGLVQAGGSLRLSCAASGSIFVPNAMGRYRQAPGKERELVAAITSGGSTYYADSVKGRFTISRDNAKNTVYLQMNSLKPEDTAVYYCAADIGSQYFGHYDYWGQGTQVTVSS | high polyreactivity
* QVQLVESGGGLVQAGGSLRLSCAASGSNFLPNAMGWYRQAPGKERELVAAISWSDDSTYYADSVKGRFTISRDNAKNTVDLQMNSLNPEDTAVYYCAADVGLWYDYWGQGTQVTVSS | high polyreactivity
* QVQLVESGGGLVQAGGSLRLSCAASGFTFEENDMGWYRQAPGKETELVAAINWSGGNTYYADSVKGRFTISRDNAKNTVYLQMNSLKPEDTAVYYCAADSPRYYYWVGPYYGYDYWGQGTQVTVSS | high polyreactivity

### Prompt Please look up its polyreactivity (PSR sort gate): QVQLVESGGGLVQAGGSLRLSCAASGSTFDSYAMGWYRQAPGKEREFVAAISSCAGSSGRTSYADSVKGRFTISRDNATNTVYLQMNSLKPEDTAVYYCAKEYTLAKYREYDYWGQGTQVTVSS
### Response low polyreactivity

### Prompt Please give the measured polyreactivity (PSR sort gate) for this sequence: QVQLVESGGGLVQAGGSLRLSCAASGNIFTRNAMGWYRQAPGKVRELVASITRGGSTYADSVKGLFTISRDNAKNTVYLQMNSLKPEDTAVYYCAASCYYSSHMDYWGQGTQVTVSS
### Response high polyreactivity

### Prompt # polyreactivity (PSR sort gate) lookup, item QVQLVESGGGLVQAGGSLRLSSAASGITFRTNTMGWYRQAPGKERELVASISSGTRTNYADSVKGRFTISRDNAKNTVYLQMNSLKPEDTAVDYCAAGPPRNRYRNARFDYWGQGTQVTVSS
### Response high polyreactivity

### Prompt Fill in: polyreactivity (PSR sort gate) of QVQLVESGGGLVQAGGSLRLSCAASGRTFWTNAMGWYRQAPGKERELVAAISWTTGSTNYADSVKGRFTISRDNAKNTVYLQMNSLKPEDTAVYYCAAQTYCTFHTYYYWGQGTQVTVSS is ___
### Response low polyreactivity

### Prompt Can you look up the measured polyreactivity (PSR sort gate) of QVQVVESWGGLVQEAGSLRLSCAASGRTFAHYNMGSYRQAPGKERELVARIDWSCGNTYYADSVKGRFTISRDNAKITVFLQMNRLKPQDTAVYYCAAVPAFYNAWGEDYEYWGQGTHVTVSS for me?
### Response low polyreactivity

### Prompt I have this sequence here, QVQLVESGGGLLQAGGSLRLSCASSGRTFKANAMVWYRQAPGKERELVAAISYSGGNTYYADSVKGRFTISRDNANNTVYLQMNSLKPEDTAVYYCARYYYLPVVDMDYWGQGTQVTVSS , and I need its recorded polyreactivity (PSR sort gate).
### Response high polyreactivity

### Prompt Using the record for QVQLVESGGGLVQAGGSLRLSCAASGSIFKKYAMGWYRQAPGKERELVAAISSTGGSTKYADSVKGRFTISRDNAKNTVYLQMNSLKPEDTAVYYCNAPGLRDYDAEYDYWGQGTQVTVSS , report its polyreactivity (PSR sort gate).
### Response high polyreactivity

### Prompt Which polyreactivity (PSR sort gate) reading was recorded for the sequence QIQLVESGGGLVQAGGILRISCAASGRTFGSNTMGWSRQAPGKERELVAAISGTGTSTYYADSVKGRFTISRDNAKNTVYLQMNILKPEDTAVFYCAAGWYKYLFQPHDYWGQGTQVTVSS ?
### Response low polyreactivity
